- Test system: Tenacibaculum maritimum ATCC 43397
- protocol details: Antibacterial disk diffusion
- Assay type: cell-based
- condition notes: Tenacibaculum maritimum ATCC 43397, footnote *
- Description: Twelve reference bacterial strains and nine MDR clinically relevant bacterial strains were used in this study. […] Strains were kept in Trypto-Casein Soy agar (TSA—Biokar Diagnostics, Allone, Beauvais, France) slants and, before each assay, were sub-cultured in Mueller-Hinton agar (MHA—Biokar Diagnostics, Allone, Beauvais, France). […] The minimal bactericidal concentration (MBC) was determined by spreading 100 μL of the content of the wells with no visible growth on MH plates. […]
Each entry below lists one item and its recorded Inhibition zone diameter (disk diffusion) value.
Reply with just the number (in mm).

Value lookup for Inhibition zone diameter (disk diffusion); key = C[C@H](CCC(=O)N1CCN(C(=O)OC(C)(C)C)CC1)[C@H]1CC[C@H]2[C@@H]3CC[C@@H]4C[C@H](O)CC[C@]4(C)[C@H]3C[C@H](O)[C@]12C
10

Value lookup for Inhibition zone diameter (disk diffusion); key = CCN(CC)CCNC(=O)CC[C@@H](C)[C@H]1CC[C@H]2[C@@H]3CC[C@@H]4C[C@H](O)CC[C@]4(C)[C@H]3C[C@H](O)[C@]12C
10

Value lookup for Inhibition zone diameter (disk diffusion); key = C[C@H](CCC(=O)NCCNc1ccccc1)[C@H]1CC[C@H]2[C@@H]3CC[C@@H]4C[C@H](O)CC[C@]4(C)[C@H]3C[C@H](O)[C@]12C
12

Value lookup for Inhibition zone diameter (disk diffusion); key = C[C@H](CCC(=O)N1CCNCC1)[C@H]1CC[C@H]2[C@@H]3CC[C@@H]4C[C@H](O)CC[C@]4(C)[C@H]3C[C@H](O)[C@]12C
9

Value lookup for Inhibition zone diameter (disk diffusion); key = C[C@H](CCC(=O)N1CCCCC1)[C@H]1CC[C@H]2[C@@H]3CC[C@@H]4C[C@H](O)CC[C@]4(C)[C@H]3C[C@H](O)[C@]12C
18

Value lookup for Inhibition zone diameter (disk diffusion); key = C[C@H](CCC(=O)NCCc1nc2ccccc2[nH]1)[C@H]1CC[C@H]2[C@@H]3CC[C@@H]4C[C@H](O)CC[C@]4(C)[C@H]3C[C@H](O)[C@]12C
9

---

- Test system: P. aeruginosa 33b (PDR)
- protocol details: Antibacterial MIC/MBC (broth microdilution)
- Format: cell-based, Pseudomonas aeruginosa
- condition notes: Pseudomonas aeruginosa; P. aeruginosa 33b (PDR); read-out: MBC
- Experimental: Twelve reference bacterial strains and nine MDR clinically relevant bacterial strains were used in this study. […] Strains were kept in Trypto-Casein Soy agar (TSA—Biokar Diagnostics, Allone, Beauvais, France) slants and, before each assay, were sub-cultured in Mueller-Hinton agar (MHA—Biokar Diagnostics, Allone, Beauvais, France). […] The minimal bactericidal concentration (MBC) was determined by spreading 100 μL of the content of the wells with no visible growth on MH plates. […]
measured parameter: MBC

Value lookup for MBC; key = C[C@H](CCC(=O)N1CCN(C(=O)OC(C)(C)C)CC1)[C@H]1CC[C@H]2[C@@H]3CC[C@@H]4C[C@H](O)CC[C@]4(C)[C@H]3C[C@H](O)[C@]12C
> 64 µg/mL

Value lookup for MBC; key = CCN(CC)CCNC(=O)CC[C@@H](C)[C@H]1CC[C@H]2[C@@H]3CC[C@@H]4C[C@H](O)CC[C@]4(C)[C@H]3C[C@H](O)[C@]12C
> 64 µg/mL

Value lookup for MBC; key = C[C@H](CCC(=O)NCCNc1ccccc1)[C@H]1CC[C@H]2[C@@H]3CC[C@@H]4C[C@H](O)CC[C@]4(C)[C@H]3C[C@H](O)[C@]12C
> 64 µg/mL

---

- Tested on: Staphylococcus aureus ATCC 29213
- protocol details: Antibacterial MIC/MBC (broth microdilution)
- Assay type: cell-based
- condition notes: ATCC29213, read-out: MIC
measured parameter: MIC (µg/mL)
Reply with just the number (in µg/mL).

compound: C[C@H](CCC(=O)N1CCN(C(=O)OC(C)(C)C)CC1)[C@H]1CC[C@H]2[C@@H]3CC[C@@H]4C[C@H](O)CC[C@]4(C)[C@H]3C[C@H](O)[C@]12C
recorded result: 16
//
compound: C[C@H](CCC(=O)N1CCNCC1)[C@H]1CC[C@H]2[C@@H]3CC[C@@H]4C[C@H](O)CC[C@]4(C)[C@H]3C[C@H](O)[C@]12C
recorded result: 64
//
compound: C[C@H](CCC(=O)N1CCN(C(=O)CC[C@H](C)[C@@H]2CC[C@@H]3[C@H]4CC[C@H]5C[C@@H](O)CC[C@@]5(C)[C@@H]4C[C@@H](O)[C@]32C)CC1)[C@H]1CC[C@H]2[C@@H]3CC[C@@H]4C[C@H](O)CC[C@]4(C)[C@H]3C[C@H](O)[C@]12C
recorded result: 64

Value lookup for MIC; key = C[C@H](CCC(=O)N1CCCCC1)[C@H]1CC[C@H]2[C@@H]3CC[C@@H]4C[C@H](O)CC[C@]4(C)[C@H]3C[C@H](O)[C@]12C
32

Value lookup for MIC; key = CCN(CC)CCNC(=O)CC[C@@H](C)[C@H]1CC[C@H]2[C@@H]3CC[C@@H]4C[C@H](O)CC[C@]4(C)[C@H]3C[C@H](O)[C@]12C
64

Value lookup for MIC; key = C[C@H](CCC(=O)NCCNc1ccccc1)[C@H]1CC[C@H]2[C@@H]3CC[C@@H]4C[C@H](O)CC[C@]4(C)[C@H]3C[C@H](O)[C@]12C
16

Hello, the source for this data is patent US20250002450A1, in case you need it.
